# measurementTarget: apo-human transferrin (apo-hTf) (Homo sapiens)
# measurementNotes: UV-Vis absorbance titration of apo-hTf
# Assay type: binding
# experimentalContext: absorbance of apo-hTf at 280 nm, pH 7.4
Examples of compounds with documented Association constants, Ka, 280 nm follow.
measuredProperty: Association constants, Ka, 280 nm

1. [Cl-].[Cl-].[Hf+4].c1cc[cH-]c1.c1cc[cH-]c1	2.11 10^3 M^−1
2. C1CCCC1.C1CCCC1.[Cl][Nb][Cl]	3 10^3 M^−1
3. [Cl][Zr+2][Cl].c1cc[cH-]c1.c1cc[cH-]c1	2.22 10^3 M^−1
4. N.N.[Cl][Pt][Cl] [(NH3)2Pt(II)Cl2, cis-diamminedichloroplatinum (II), reference compound]	0.74 10^3 M^−1
5. [Cl-].[Cl-].[V+4].c1cc[cH-]c1.c1cc[cH-]c1	3.24 10^3 M^−1
6. [Cl-].[Cl-].[Mo+4].c1cc[cH-]c1.c1cc[cH-]c1	3.06 10^3 M^−1
7. [Cl-].[Cl-].[Ti+4].c1cc[cH-]c1.c1cc[cH-]c1 [Cp2TiCl2, titanocene dichloride]	2.89 10^3 M^−1
8. C1CCCC1.C1CCCC1.[Cl][W][Cl]	2.93 10^3 M^−1

====

# measurementTarget: apo-human transferrin (apo-hTf) (Homo sapiens)
# measurementNotes: Fluorescence quenching of apo-hTf
# Format: binding
# experimentalContext: 296 K, pH 7.4, modified Stern-Volmer
Output 1 (yes) for records whose quenching association constant Ka is lower than 9000 M⁻¹, 0 (no) for records at or above 9000 M⁻¹.

1) C1CCCC1.C1CCCC1.[Cl][W][Cl]	1 (yes)
2) [Cl][Zr+2][Cl].c1cc[cH-]c1.c1cc[cH-]c1	1 (yes)
3) C1CCCC1.C1CCCC1.[Cl][Nb][Cl]	0 (no)
4) [Cl-].[Cl-].[Ti+4].c1cc[cH-]c1.c1cc[cH-]c1 [Cp2TiCl2, titanocene dichloride]	1 (yes)
5) N.N.[Cl][Pt][Cl] [(NH3)2Pt(II)Cl2, cis-diamminedichloroplatinum (II), reference compound]	1 (yes)
6) [Cl-].[Cl-].[Mo+4].c1cc[cH-]c1.c1cc[cH-]c1	0 (no)
7) [Cl-].[Cl-].[V+4].c1cc[cH-]c1.c1cc[cH-]c1	0 (no)

====

# measurementTarget: apo-human transferrin (apo-hTf) (Homo sapiens, UniProt P02787)
# Sequence (P02787 20-698): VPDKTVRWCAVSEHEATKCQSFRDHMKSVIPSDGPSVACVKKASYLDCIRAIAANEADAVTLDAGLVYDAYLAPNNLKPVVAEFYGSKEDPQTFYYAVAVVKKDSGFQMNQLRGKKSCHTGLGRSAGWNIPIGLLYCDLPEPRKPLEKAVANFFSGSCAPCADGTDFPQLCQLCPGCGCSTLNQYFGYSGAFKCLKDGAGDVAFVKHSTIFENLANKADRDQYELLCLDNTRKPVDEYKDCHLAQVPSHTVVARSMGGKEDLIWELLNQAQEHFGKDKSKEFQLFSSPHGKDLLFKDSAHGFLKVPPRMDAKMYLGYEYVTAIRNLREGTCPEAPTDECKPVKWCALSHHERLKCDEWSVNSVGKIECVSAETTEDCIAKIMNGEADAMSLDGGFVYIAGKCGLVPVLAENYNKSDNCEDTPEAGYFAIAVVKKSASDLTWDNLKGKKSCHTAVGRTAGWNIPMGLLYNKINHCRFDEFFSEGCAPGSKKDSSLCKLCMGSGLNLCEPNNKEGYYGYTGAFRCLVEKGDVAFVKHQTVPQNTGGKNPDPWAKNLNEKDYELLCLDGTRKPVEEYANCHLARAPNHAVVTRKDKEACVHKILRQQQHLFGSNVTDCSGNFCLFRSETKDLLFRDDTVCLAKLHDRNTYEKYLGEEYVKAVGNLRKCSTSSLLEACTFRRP
# measurementNotes: Far-UV circular dichroism titration of apo-hTf, secondary structure content
# experimentalContext: compound concentration 2.4 (M)
measuredProperty: α-helix content of apo-hTf (%)

1) [Cl-].[Cl-].[Ti+4].c1cc[cH-]c1.c1cc[cH-]c1 [Cp2TiCl2, titanocene dichloride]	28.4
2) [Cl][Zr+2][Cl].c1cc[cH-]c1.c1cc[cH-]c1 [Cp2ZrCl2]	28.4
3) C1CCCC1.C1CCCC1.[Cl][W][Cl] [Cp2WCl2]	27.5

====

# measurementTarget: apo-human transferrin (apo-hTf) (Homo sapiens)
# measurementNotes: Fluorescence quenching of apo-hTf
# Assay type: binding
# experimentalContext: 296 K, pH 7.4
Stern-Volmer quenching constant Ksv values, listed per item
measuredProperty: Stern-Volmer quenching constant Ksv

1) C1CCCC1.C1CCCC1.[Cl][Nb][Cl]	25230 M⁻¹
2) [Cl-].[Cl-].[V+4].c1cc[cH-]c1.c1cc[cH-]c1	35640 M⁻¹
3) [Cl-].[Cl-].[Ti+4].c1cc[cH-]c1.c1cc[cH-]c1 [Cp2TiCl2, titanocene dichloride]	1530 M⁻¹
4) [Cl][Zr+2][Cl].c1cc[cH-]c1.c1cc[cH-]c1	2390 M⁻¹
5) [Cl-].[Cl-].[Mo+4].c1cc[cH-]c1.c1cc[cH-]c1	1510 M⁻¹
6) N.N.[Cl][Pt][Cl] [(NH3)2Pt(II)Cl2, cis-diamminedichloroplatinum (II), reference compound]	1350 M⁻¹
7) [Cl-].[Cl-].[Hf+4].c1cc[cH-]c1.c1cc[cH-]c1	1970 M⁻¹
8) C1CCCC1.C1CCCC1.[Cl][W][Cl]	1610 M⁻¹

====

Recorded α-helix content of apo-hTf by entry
# measurementTarget: apo-human transferrin (apo-hTf) (Homo sapiens, UniProt P02787)
# measurementNotes: Far-UV circular dichroism titration of apo-hTf, secondary structure content
# experimentalContext: compound concentration 1.2 (M)
measuredProperty: α-helix content of apo-hTf (%)

1) C1CCCC1.C1CCCC1.[Cl][W][Cl]	29.1
2) [Cl-].[Cl-].[Hf+4].c1cc[cH-]c1.c1cc[cH-]c1	29.3
3) C1CCCC1.C1CCCC1.[Cl][Nb][Cl]	27.6
4) N.N.[Cl][Pt][Cl] [(NH3)2Pt(II)Cl2, cis-diamminedichloroplatinum (II), reference compound]	28.5
5) [Cl][Zr+2][Cl].c1cc[cH-]c1.c1cc[cH-]c1	29

====

# measurementTarget: apo-human transferrin (apo-hTf) (Homo sapiens)
# measurementNotes: Far-UV circular dichroism titration of apo-hTf, secondary structure content
# experimentalContext: compound concentration 0.8 (M)
# Lookup of reported α-helix content of apo-hTf keyed by entry
measuredProperty: α-helix content of apo-hTf (%)

1. N.N.[Cl][Pt][Cl] [(NH3)2Pt(II)Cl2, cis-diamminedichloroplatinum (II), reference compound]	28.7
2. [Cl][Zr+2][Cl].c1cc[cH-]c1.c1cc[cH-]c1	29.1
3. [Cl-].[Cl-].[Mo+4].c1cc[cH-]c1.c1cc[cH-]c1	28.3
4. C1CCCC1.C1CCCC1.[Cl][W][Cl]	29.5
5. [Cl-].[Cl-].[Ti+4].c1cc[cH-]c1.c1cc[cH-]c1 [Cp2TiCl2, titanocene dichloride]	29.1
6. [Cl-].[Cl-].[Hf+4].c1cc[cH-]c1.c1cc[cH-]c1	29.5
7. C1CCCC1.C1CCCC1.[Cl][Nb][Cl]	28.7
8. [Cl-].[Cl-].[V+4].c1cc[cH-]c1.c1cc[cH-]c1	27.9

====

# measurementTarget: UniProt:P02787
# measurementNotes: Fluorescence quenching of apo-hTf
# Format: binding
# experimentalContext: 296 K, kq=Ksv/τ0
The reader will find reported biomolecular quenching rate constant kq values listed item by item below.
measuredProperty: biomolecular quenching rate constant kq

1. [Cl-].[Cl-].[Mo+4].c1cc[cH-]c1.c1cc[cH-]c1 [Cp2MoCl2]	1.51e+11 M⁻¹ s⁻¹
2. [Cl-].[Cl-].[V+4].c1cc[cH-]c1.c1cc[cH-]c1 [Cp2VCl2]	3.564e+12 M⁻¹ s⁻¹
3. [Cl][Zr+2][Cl].c1cc[cH-]c1.c1cc[cH-]c1 [Cp2ZrCl2]	2.39e+11 M⁻¹ s⁻¹
4. N.N.[Cl][Pt][Cl] [(NH3)2Pt(II)Cl2, cis-diamminedichloroplatinum (II), reference compound]	1.35e+11 M⁻¹ s⁻¹
5. [Cl-].[Cl-].[Hf+4].c1cc[cH-]c1.c1cc[cH-]c1 [Cp2HfCl2]	1.97e+11 M⁻¹ s⁻¹

====

# measurementTarget: apo-human transferrin (apo-hTf) (Homo sapiens)
# measurementNotes: Fluorescence quenching of apo-hTf
# Assay type: binding
# experimentalContext: 310 K, pH 7.4
measuredProperty: number of binding sites n

1) [Cl][Zr+2][Cl].c1cc[cH-]c1.c1cc[cH-]c1 [Cp2ZrCl2]	1.01
2) [Cl-].[Cl-].[Hf+4].c1cc[cH-]c1.c1cc[cH-]c1 [Cp2HfCl2]	1.18
3) C1CCCC1.C1CCCC1.[Cl][Nb][Cl] [Cp2NbCl2]	1.28
4) [Cl-].[Cl-].[Ti+4].c1cc[cH-]c1.c1cc[cH-]c1 [Cp2TiCl2, titanocene dichloride]	1.07
5) [Cl-].[Cl-].[V+4].c1cc[cH-]c1.c1cc[cH-]c1 [Cp2VCl2]	1.16
6) N.N.[Cl][Pt][Cl] [(NH3)2Pt(II)Cl2, cis-diamminedichloroplatinum (II), reference compound]	1.04
7) [Cl-].[Cl-].[Mo+4].c1cc[cH-]c1.c1cc[cH-]c1 [Cp2MoCl2]	1.19
8) C1CCCC1.C1CCCC1.[Cl][W][Cl] [Cp2WCl2]	1.08

====

Item-by-item account of random coil content of apo-hTf
# measurementTarget: apo-human transferrin (apo-hTf) (Homo sapiens, UniProt P02787)
# measurementNotes: Far-UV circular dichroism titration of apo-hTf, secondary structure content
# experimentalContext: compound concentration 1.2 (M)
measuredProperty: random coil content of apo-hTf (%)

1. [Cl-].[Cl-].[Ti+4].c1cc[cH-]c1.c1cc[cH-]c1 [Cp2TiCl2, titanocene dichloride]	33.9
2. C1CCCC1.C1CCCC1.[Cl][Nb][Cl]	34.2
3. [Cl-].[Cl-].[Hf+4].c1cc[cH-]c1.c1cc[cH-]c1	33.8
